Biological target: T1, LRP2 CR89 (UniProt P98164 1025-1102, limits assumed)
T1 construct: domain: CR89
T1 sequence (P98164 1025-1102 limits assumed): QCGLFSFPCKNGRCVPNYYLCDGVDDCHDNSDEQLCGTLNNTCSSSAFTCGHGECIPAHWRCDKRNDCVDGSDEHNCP
Assay: solid-phase binding (OD), single-site non-linear regression
Measured Property: Kd (nM)

# Binder, Readout Units, Kd
records = [
    ("RAP d3 E251K, K256A, K270E (ligand, also called RAP E251K, K256A, K270E) GLDRLRRVSHQGYSTEAEFEEPRVIDLWDLAQSANLTDKELEAFREELKHFKAKIEAHNHYQKQLEIAHEELRHAESVGDGERVSRSREKHALLEGRTKELGYTVKKHLQDLSGRISRARHNEL", "nM", 114),
]

a = MegaRAP1 d3 K251E, E270K (ligand, also called MegaRAP1 K251E, E270K) GLDRLRRVSHQGYTTEAKFEEPRVIDLWDLAQSANLTDKELEAFREELKYFEAKIEAHNHYQKQLEIAHEKLRHAESVGDGERVSRSREKHALLEGRTKELGYTVKKHLQDLSGRISRARHNEL
b = MegaRAP1 d3 E270K (ligand, also called MegaRAP1 E270K) GLDRLRRVSHQGYTTEAKFEEPRVIDLWDLAQSANLTDKELEAFREELKYFKAKIEAHNHYQKQLEIAHEKLRHAESVGDGERVSRSREKHALLEGRTKELGYTVKKHLQDLSGRISRARHNEL
Quick one: lower Kd, a or b ? State your choice using its label.
b
